Measured In Vitro LPS Neutralization EC50 values are reported for all entries that follow.
- Test system: mouse RAW 264.7 cells incubated with E. coli O113 LPS
- reported-conditions: RAW 264.7 cells with E. coli O113 LPS; concentration reversing LPS growth inhibition by 50%
- Protocol: An in vitro LPS neutralization screening assay for evaluation of Domain III derived peptides was developed (as described in co-owned and co-pending U.S. patent application Ser. No. 08/306,473) which provides both a measure of efficacy of each peptide (EC50) and of the toxicity/growth inhibition of each peptide (IC50). The cells were counted and their concentration adjusted to 2×10^5 cells/mL and 100 μL aliquots were added to each well of a 96-well microtitre plate. […]
Ends that are not written are not given here.
Please give a number only; it is taken to be in mg/L.

// known answers, use as guide
PWAIQLFHKK-NH2 (C-terminus assumed) [XMP.387P] : 15.53
H-KPWLIQLFHKK-NH2 [XMP.390P] : 3.97
KKWLIQLFKK-NH2 [XMP.351P] : 8.47

Exercise: Which In Vitro LPS Neutralization EC50 value belongs to H-KKWLIQLFHKK-NH2 [XMP.352P] ?
Solution: 2.34

Exercise: Another substance to look at: H-PWLIQLFHKK-NH2 [XMP.355P]
Solution: 1.08

* * *

- Test system: Candida albicans SLU-1 strain
- protocol-notes: Serum stability, anti-fungal activity after serum incubation by radial diffusion bioassay
- Format: in vitro ADME, rat or human serum
Square brackets hold non-standard residues; d marks the D form. Peptide text beside a SMILES is read from it.
experimental-readout: Activity in Serum t ½ (hr.)

CC[C@@H](C)[C@@H](NC(=O)[C@@H](C)NC(=O)[C@@H](Cc1c[nH]c2ccccc12)NC(=O)[C@@H](CCCCN)NC(=O)[C@H](N)CCCCN)C(=O)N[C@H](CCC(N)=O)C(=O)N[C@H](CC(C)C)C(=O)N[C@H](CCCCN)C(=O)N[C@H](CCCCN)C(N)=O [XMP.375] (H-[dK][dK][dW][dA][dI][dQ][dL][dK][dK]-NH2) : indefinite
CC[C@H](C)[C@H](NC(=O)[C@H](CC(C)C)NC(=O)[C@@H](Cc1c[nH]c2ccccc12)NC(=O)[C@H](N)CCCCN)C(=O)N[C@@H](CCC(N)=O)C(=O)N[C@@H](CC(C)C)C(=O)N[C@@H](Cc1ccccc1)C(=O)N[C@@H](Cc1c[nH]cn1)C(=O)N[C@H](CCCCN)C(=O)N[C@H](CCCCN)C(N)=O : indefinite

* * *

Items are presented alongside their recorded half-life at 0.5 mg/mL.
- protocol-notes: Serum stability, anti-fungal activity after serum incubation by radial diffusion bioassay
- Type: in vitro ADME, rat or human serum
- reported-conditions: Activity in Serum t ½ (hr.)
Square brackets hold non-standard residues; d marks the D form. Peptide text beside a SMILES is read from it. * marks the point of attachment. Octanoyl = CCCCCCCC(=O)*; Dab = NCC[C@H](N)C(=O)O
Numeric only. Scale: h

Worked set:
CC[C@H](C)[C@H](NC(=O)[C@H](CC(C)C)NC(=O)[C@H](Cc1c[nH]c2ccccc12)NC(=O)[C@H](CCCN)NC(=O)[C@@H](N)CCCN)C(=O)N[C@@H](CCC(N)=O)C(=O)N[C@@H](CC(C)C)C(=O)N[C@@H](CCCN)C(=O)N[C@@H](CCCN)C(N)=O [XMP.338] : 4.7
CC[C@H](C)[C@H](NC(=O)[C@H](CC(C)C)NC(=O)[C@H](Cc1c[nH]c2ccccc12)NC(=O)[C@H](CCCCN)NC(C)=O)C(=O)N[C@@H](CCN)C(=O)N[C@@H](CC(C)C)C(=O)N[C@@H](Cc1ccccc1)C(=O)N[C@@H](Cc1c[nH]cn1)C(=O)N[C@@H](CCCCN)C(=O)N[C@@H](CCCCN)C(N)=O [XMP.372] (Ac-KWLI[Dab]LFHKK-NH2) : 1.4

Continue with the compound presented below.
Exercise: Tell me the measured half-life at 0.5 mg/mL of CCCCCCCC(=O)N[C@@H](CCCCN)C(=O)N[C@@H](CCCCN)C(=O)N[C@@H](Cc1c[nH]c2ccccc12)C(=O)N[C@@H](C)C(=O)N[C@H](C(=O)N[C@@H](CCC(N)=O)C(=O)N[C@@H](CC(C)C)C(=O)N[C@@H](CCCCN)C(=O)N[C@@H](CCCCN)C(N)=O)[C@@H](C)CC [XMP.410] (Octanoyl-KKWAIQLKK-NH2) , please.
Solution: 2.9
